- target: human GnRH receptor1 (GnRHR1) (Homo sapiens (Human), UniProt P30968)
- Sequence (P30968 whole entry): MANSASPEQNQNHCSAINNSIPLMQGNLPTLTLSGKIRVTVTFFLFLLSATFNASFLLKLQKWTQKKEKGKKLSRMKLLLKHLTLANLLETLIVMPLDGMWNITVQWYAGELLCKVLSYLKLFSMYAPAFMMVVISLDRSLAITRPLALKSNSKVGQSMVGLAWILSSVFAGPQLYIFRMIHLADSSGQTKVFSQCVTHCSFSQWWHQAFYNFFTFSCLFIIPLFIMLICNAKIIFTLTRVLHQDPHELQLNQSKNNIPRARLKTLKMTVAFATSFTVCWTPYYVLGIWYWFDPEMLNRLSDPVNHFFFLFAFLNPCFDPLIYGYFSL
- test_description: Assay of GnRH antagonizing effect: inhibition of GnRH-stimulated intracellular calcium flux in HEK293 cells transiently expressing human GnRHR1
- measurement_setup: 5 nM GnRH, FLIPR calcium dye, read-out: IC50 (drug concentration at which 50% GnRH-stimulated intracellular calcium flux was inhibited)
readout: IC50 (nM)

Consider the following illustrative entries.
Lab note: need IC50 with human GnRH receptor1 (GnRHR1) (Homo sapiens (Human), UniProt P30968) for entry COc1cc(F)c(-n2c(=O)[nH]c3csc(C(=O)O)c3c2=O)cc1COc1c(OC)ccc(F)c1F , please look it up.
42

Can you look up IC50 on human GnRH receptor1 (GnRHR1) (Homo sapiens (Human), UniProt P30968) for COc1ccc(F)cc1C(C)(C)Sc1ccc(F)c(-n2c(=O)[nH]c3csc(C(=O)O)c3c2=O)c1 ?
17

Record lookup: for human GnRH receptor1 (GnRHR1) (Homo sapiens (Human), UniProt P30968), what IC50 belongs to Cc1cccc(N(C)S(=O)(=O)c2ccc(Cl)c(-n3c(=O)[nH]c4sccc4c3=O)c2)c1 ?
101

P. O=c1[nH]c2ccsc2c(=O)n1-c1cc(S(=O)(=O)N2CCCc3ccccc32)ccc1Cl
Q. CC(C)(c1ccccc1)S(=O)(=O)c1ccc(F)c(-n2c(=O)[nH]c3csc(C(=O)O)c3c2=O)c1
R. O=C(O)c1scc2[nH]c(=O)n(-c3cc(S(=O)(=O)N4CCCc5ccccc54)ccc3Cl)c(=O)c12
S. Cc1ccccc1COc1ccc(Cl)c(-n2c(=O)[nH]c3csc(C(=O)O)c3c2=O)c1
T. COc1cccc(F)c1C(C)Oc1ccc(F)c(-n2c(=O)[nH]c3csc(C(=O)O)c3c2=O)c1 (stereo not drawn)
Hey, quick one: sort these by IC50, largest value first please. Give the labels in the order specified.
P, S, T, Q, R
(P: 199 nM, S: 85 nM, T: 29 nM, Q: 20 nM, R: 2 nM)

* * *

- test_description: Assay for oral absorbability: plasma drug concentration in rats after intravenous (1 mg/kg) and oral (3 mg/kg) administration (Cmax, bioavailability, C360)
- Assay type: in vivo
- measurement_setup: male, rat, plasma; oral administration, 3 mg/kg, SD rats; read-out: Cmax (maximum plasma drug concentration)
readout: Cmax (ng/mL)

Requested read-out: Cmax. Entry: CN(C(=O)c1ccc(Cl)c(-n2c(=O)[nH]c3csc(C(=O)O)c3c2=O)c1)c1ccccc1 [Example 95]
322

Endpoint output: Cmax of COCCOc1ccc(F)c(F)c1COc1ccc(F)c(-n2c(=O)[nH]c3csc(C(=O)O)c3c2=O)c1 [Example 367] . Value?
14100

1. COc1cc(F)c(-n2c(=O)[nH]c3csc(C(=O)O)c3c2=O)cc1CN(C)c1c(F)cccc1F [Example 420]
2. COc1cc(F)c(-n2c(=O)[nH]c3csc(C(=O)O)c3c2=O)cc1OCc1c(OC)ccc(F)c1F [Example 233]
Identify the entry with the larger Cmax. Options: 1 and 2 Choose, then provide that item's label.
2

* * *

- test_description: Assay for oral absorbability: plasma drug concentration in rats after intravenous (1 mg/kg) and oral (3 mg/kg) administration (Cmax, bioavailability, C360)
- Type: in vivo
- measurement_setup: male, rat, plasma; oral administration, 3 mg/kg, SD rats; read-out: Cmax (maximum plasma drug concentration)
readout: Cmax (ng/mL)

Guide cases for Cmax, answers given:
Given the entry CC(C)(C(=O)c1ccc(Cl)c(-n2c(=O)[nH]c3csc(C(=O)O)c3c2=O)c1)c1ccccc1 , report its measured Cmax.
17900

# input molecule: COc1cc(F)c(-n2c(=O)[nH]c3csc(C(=O)O)c3c2=O)cc1COc1c(OC)ccc(F)c1F ; wanted: its Cmax
25600

I'd like to know its Cmax. The molecule in question is CC(C)(c1ccccc1)S(=O)(=O)c1ccc(F)c(-n2c(=O)[nH]c3csc(C(=O)O)c3c2=O)c1
1310

Value lookup for Cmax; key = COc1ccc(F)cc1C(C)(C)Sc1ccc(F)c(-n2c(=O)[nH]c3csc(C(=O)O)c3c2=O)c1
13500

Quick one: Cmax for CC(C)(Oc1ccc(Cl)c(-n2c(=O)[nH]c3csc(C(=O)O)c3c2=O)c1)c1ccccc1 ?
17600

a. COc1cccc(F)c1C(C)Oc1ccc(F)c(-n2c(=O)[nH]c3csc(C(=O)O)c3c2=O)c1 (stereo not shown)
b. O=C(O)c1scc2[nH]c(=O)n(-c3cc(S(=O)(=O)N4CCCc5ccccc54)ccc3Cl)c(=O)c12
Two entries are listed, a and b . Which one carries the higher Cmax? In your reply, give the label of the chosen option.
a
(a: 14500 ng/mL, b: 342 ng/mL)
